- experiment description: NFAT Signaling Pathway (AID 444);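 note: carbachol stimulus at about its EC50 of 1 µM final; % is set by controls: 0 for no effect and ±100 for the full control effect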
- assay setup: Jurkat NFAT-bla M1, carbachol, beta-lactamase ratio, 5 h; at 7.69 µM (top of the series) unless noted
Records with an inconclusive call do not appear.
metric: activity change, negative = inhibition (%)
Please reply with the bare figure in % and do not write the unit itself.

// solved cases for activity change, negative = inhibition follow
> print(dat)
                           structure.smiles  result.number
1          Cc1ccccc1-c1cc(N(C)Cc2ccco2)ncn1          -15.6
2           O=C(Nc1ccccc1)N1CCC2(CCNCC2)CC1          -7.88
3      COc1ccccc1-c1nc(NCc2cccs2)c2ccccc2n1          -14.6
4  COc1ccc(CNc2ccnc(-c3cccc(NS(C)(=O)=O)c3)n2)c(OC)c1           8.15
5  COc1ccccc1CNc1ncnc2ccc(-c3ccc4c(c3)OCO4)cc12          -26.5

Ask: May I ask what activity change, negative = inhibition has been recorded for COc1cccc(-c2nccc(NCc3ccccc3)n2)c1 ?
Reply: 15.6
